# Test system: erythrocyte suspensions of horse blood
# study_conditions: 150 µM peptide; horse erythrocytes 5% vol/vol, TRIS buffer pH 7.2, 1 h at 37°C, absorbance 540 nm; relative to melittin 100 μM; ± confidence interval (α = 0.05)
Where a SMILES comes first, the peptide text is derived from it. Side-chain parts run from the residue outwards. The star is where a group is joined. Pentanoyl(4-Me) = CC(C)CCC(=O)*; Hexanoyl = CCCCCC(=O)*; Pentanoyl = CCCCC(=O)*; Butyryl = CCCC(=O)*
readout_label: Hemolysis (%) 150 µM
Just the number please, in %, no unit attached.

What value of Hemolysis (%) 150 µM has been recorded for this entry: CCCCC(=O)NCCCC[C@@H]1NC(=O)[C@H](CCCCN)NC(=O)[C@H](CC(C)C)NC(=O)[C@H](CCCCN)NC(=O)[C@H](CCCCN)NC(=O)[C@H](CCC(N)=O)NC(=O)[C@H](CC(C)C)NC(=O)[C@H](CCCCN)NC(=O)[C@H](CCCCN)NC(=O)[C@H](Cc2ccccc2)NC1=O [BPC526, c(KKLKK(CO-C4H9)FKKLQ)] (cyclo(FKKLQKKLKK(Pentanoyl)))
62

What value of Hemolysis (%) 150 µM has been recorded for this entry: CCCC(=O)NCCCC[C@@H]1NC(=O)[C@H](CCCCN)NC(=O)[C@H](CC(C)C)NC(=O)[C@H](CCCCN)NC(=O)[C@H](CCCCN)NC(=O)[C@H](CCC(N)=O)NC(=O)[C@H](CC(C)C)NC(=O)[C@H](CCCCN)NC(=O)[C@H](CCCCN)NC(=O)[C@H](Cc2c[nH]cn2)NC1=O [BPC718, c(KKLKK(CO-C3H7)HKKLQ)] (cyclo(HKKLQKKLKK(Butyryl)))
3

What value of Hemolysis (%) 150 µM has been recorded for this entry: CC(C)CCC(=O)NCCCC[C@@H]1NC(=O)[C@H](CCCCN)NC(=O)[C@H](CC(C)C)NC(=O)[C@H](CCCCN)NC(=O)[C@H](CCCCN)NC(=O)[C@H](CCC(N)=O)NC(=O)[C@H](CC(C)C)NC(=O)[C@H](CCCCN)NC(=O)[C@H](CCCCN)NC(=O)[C@H](Cc2ccccc2)NC1=O [BPC504, c(KKLKK(CO-isoC5H11)FKKLQ)] (cyclo(FKKLQKKLKK(Pentanoyl(4-Me))))
89

What value of Hemolysis (%) 150 µM has been recorded for this entry: CCCCCC(=O)N[C@@H](CCCCN)C(=O)N[C@@H](CC(C)C)C(=O)NCCCC[C@@H]1NC(=O)[C@H](CCCCN)NC(=O)[C@H](CC(C)C)NC(=O)[C@H](CCCCN)NC(=O)[C@H](CCCCN)NC(=O)[C@H](CCC(N)=O)NC(=O)[C@H](CC(C)C)NC(=O)[C@H](CCCCN)NC(=O)[C@H](CCCCN)NC(=O)[C@H](Cc2c[nH]cn2)NC1=O [BPC676, c(KKLKK(LK-CO-nC5H11)HKKLQ)] (cyclo(HKKLQKKLKK([Leu-Lys-Hexanoyl])))
3

What value of Hemolysis (%) 150 µM has been recorded for this entry: CCCC(=O)N[C@@H](CCCCN)C(=O)N[C@@H](CC(C)C)C(=O)NCCCC[C@@H]1NC(=O)[C@H](CCCCN)NC(=O)[C@H](CC(C)C)NC(=O)[C@H](CCCCN)NC(=O)[C@H](CCCCN)NC(=O)[C@H](CCC(N)=O)NC(=O)[C@H](CC(C)C)NC(=O)[C@H](CCCCN)NC(=O)[C@H](CCCCN)NC(=O)[C@H](Cc2c[nH]cn2)NC1=O [BPC728, c(KKLKK(LK-CO-C3H7)HKKLQ)] (cyclo(HKKLQKKLKK([Leu-Lys-Butyryl])))
0

* * *

# System: erythrocyte suspensions of horse blood;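 also: Read-out is hemoglobin release into the supernatant, with a buffer-only blank subtracted as the 0% baseline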
# study_conditions: 250 µM peptide; horse erythrocytes 5% vol/vol, TRIS buffer pH 7.2, 1 h at 37°C, absorbance 540 nm; relative to melittin 100 μM; ± confidence interval (α = 0.05)
Where a SMILES comes first, the peptide text is derived from it. Side-chain parts run from the residue outwards. [ ]: non-standard residue; d: D form. The star is where a group is joined. Pentanoyl(4-Me) = CC(C)CCC(=O)*; Octanoyl = CCCCCCCC(=O)*; X1 = O=C(CCCCCCCCCCCO)*; Hexanoyl = CCCCCC(=O)*; Butyryl = CCCC(=O)*
For each record, write down the corresponding Hemolysis (%) 250 µM.
Just the number please, in %, no unit attached.

What value of Hemolysis (%) 250 µM has been recorded for this entry: CCCCCC(=O)N[C@@H](CCCCN)C(=O)N[C@@H](CC(C)C)C(=O)NCCCC[C@@H]1NC(=O)[C@H](CCCCN)NC(=O)[C@H](CC(C)C)NC(=O)[C@H](CCCCN)NC(=O)[C@H](CCCCN)NC(=O)[C@H](CCC(N)=O)NC(=O)[C@H](CC(C)C)NC(=O)[C@H](CCCCN)NC(=O)[C@H](CCCCN)NC(=O)[C@H](Cc2ccccc2)NC1=O [BPC596, c(KKLKK(LK-CO-nC5H11)FKKLQ)] (cyclo(FKKLQKKLKK([Leu-Lys-Hexanoyl])))
100

What value of Hemolysis (%) 250 µM has been recorded for this entry: CCCCCC(=O)N[C@@H](CCCCN)C(=O)N[C@@H](CC(C)C)C(=O)NCCCC[C@H]1NC(=O)[C@H](CCCCN)NC(=O)[C@H](CC(C)C)NC(=O)[C@H](CCCCN)NC(=O)[C@H](CCCCN)NC(=O)[C@H](CCC(N)=O)NC(=O)[C@H](CC(C)C)NC(=O)[C@H](CCCCN)NC(=O)[C@H](CCCCN)NC(=O)[C@H](Cc2ccccc2)NC1=O [BPC672, c(KKLKk(LK-CO-nC5H11)FKKLQ)] (cyclo(FKKLQKKLK[dK]([Leu-Lys-Hexanoyl])))
33

What value of Hemolysis (%) 250 µM has been recorded for this entry: CCCCCC(=O)NCCCC[C@@H]1NC(=O)[C@H](CCCCN)NC(=O)[C@H](CC(C)C)NC(=O)[C@H](CCCCN)NC(=O)[C@H](CCCCN)NC(=O)[C@H](CCC(N)=O)NC(=O)[C@H](CC(C)C)NC(=O)[C@H](CCCCN)NC(=O)[C@H](CCCCN)NC(=O)[C@@H](Cc2ccccc2)NC1=O [BPC624, c(KKLKK(CO-nC5H11)fKKLQ)] (cyclo(KKLKK(Hexanoyl)[dF]KKLQ))
64

What value of Hemolysis (%) 250 µM has been recorded for this entry: CCCC(=O)NCCCC[C@@H]1NC(=O)[C@H](CCCCN)NC(=O)[C@H](CCC(N)=O)NC(=O)[C@H](CC(C)C)NC(=O)[C@H](CCCCN)NC(=O)[C@H](CCCCN)NC(=O)[C@H](Cc2ccccc2)NC(=O)[C@H](CCCCN)NC(=O)[C@H](CCCCN)NC(=O)[C@H](CC(C)C)NC1=O [BPC708] (cyclo(FKKLQKK(Butyryl)LKK))
3

What value of Hemolysis (%) 250 µM has been recorded for this entry: CCCCCC(=O)NCCCC[C@@H]1NC(=O)[C@H](CCC(N)=O)NC(=O)[C@H](CC(C)C)NC(=O)[C@H](CCCCN)NC(=O)[C@H](CCCCN)NC(=O)[C@@H](Cc2ccccc2)NC(=O)[C@H](CCCCN)NC(=O)[C@H](CCCCN)NC(=O)[C@H](CC(C)C)NC(=O)[C@H](CCCCN)NC1=O [BPC686, c(K(CO-nC5H11)KLKKfKKLQ)] (cyclo(K(Hexanoyl)KLKK[dF]KKLQ))
14

What value of Hemolysis (%) 250 µM has been recorded for this entry: CCCC(=O)NCCCC[C@@H]1NC(=O)[C@H](CCC(N)=O)NC(=O)[C@H](CC(C)C)NC(=O)[C@H](CCCCN)NC(=O)[C@H](CCCCN)NC(=O)[C@H](Cc2c[nH]cn2)NC(=O)[C@H](CCCCN)NC(=O)[C@H](CCCCN)NC(=O)[C@H](CC(C)C)NC(=O)[C@H](CCCCN)NC1=O [BPC722] (cyclo(HKKLQK(Butyryl)KLKK))
3

What value of Hemolysis (%) 250 µM has been recorded for this entry: CC(C)C[C@@H]1NC(=O)[C@H](CCCCN)NC(=O)[C@H](CCCCN)NC(=O)[C@H](CCC(N)=O)NC(=O)[C@H](CC(C)C)NC(=O)[C@H](CCCCN)NC(=O)[C@H](CCCCN)NC(=O)[C@H](Cc2ccccc2)NC(=O)[C@H](CCCCNC(=O)CCCCCCCCCCCO)NC(=O)[C@H](CCCCN)NC1=O [BPC524, c(KKLKK(CO-C11H22OH)FKKLQ)] (cyclo(FKKLQKKLKK(X1)))
100

What value of Hemolysis (%) 250 µM has been recorded for this entry: CCCCCCCC(=O)NCCCC[C@H]1NC(=O)[C@H](CCCCN)NC(=O)[C@H](CC(C)C)NC(=O)[C@H](CCCCN)NC(=O)[C@H](CCCCN)NC(=O)[C@H](CCC(N)=O)NC(=O)[C@H](CC(C)C)NC(=O)[C@H](CCCCN)NC(=O)[C@H](CCCCN)NC(=O)[C@H](Cc2ccccc2)NC1=O [BPC666, c(KKLKk(CO-C7H15)FKKLQ)] (cyclo(FKKLQKKLK[dK](Octanoyl)))
73

What value of Hemolysis (%) 250 µM has been recorded for this entry: CCCCCCCC(=O)NCCCC[C@@H]1NC(=O)[C@H](CCCCN)NC(=O)[C@H](CC(C)C)NC(=O)[C@H](CCCCN)NC(=O)[C@H](CCCCN)NC(=O)[C@H](CCC(N)=O)NC(=O)[C@H](CC(C)C)NC(=O)[C@H](CCCCN)NC(=O)[C@H](CCCCN)NC(=O)[C@@H](Cc2ccccc2)NC1=O [BPC668, c(KKLKK(CO-C7H15)fKKLQ)] (cyclo(KKLKK(Octanoyl)[dF]KKLQ))
79

What value of Hemolysis (%) 250 µM has been recorded for this entry: CCCCCC(=O)NCCCC[C@@H]1NC(=O)[C@H](Cc2ccccc2)NC(=O)[C@H](CCCCN)NC(=O)[C@H](CCCCN)NC(=O)[C@H](CC(C)C)NC(=O)[C@H](CCCCN)NC(=O)[C@H](CCCCN)NC(=O)[C@H](CCC(N)=O)NC(=O)[C@H](CC(C)C)NC(=O)[C@H](CCCCN)NC1=O [BPC584, c(KKLKKFK(CO-nC5H11)KLQ)] (cyclo(FK(Hexanoyl)KLQKKLKK))
97

What value of Hemolysis (%) 250 µM has been recorded for this entry: CC(C)CCC(=O)NCCCC[C@@H]1NC(=O)[C@H](CCCCN)NC(=O)[C@H](CC(C)C)NC(=O)[C@H](CCCCN)NC(=O)[C@H](CCCCN)NC(=O)[C@H](CCC(N)=O)NC(=O)[C@H](CC(C)C)NC(=O)[C@H](CCCCN)NC(=O)[C@H](CCCCN)NC(=O)[C@H](Cc2c[nH]cn2)NC1=O [BPC638, c(KKLKK(CO-isoC5H11)HKKLQ)] (cyclo(HKKLQKKLKK(Pentanoyl(4-Me))))
8
